# Experiment Summary: Clearance in mouse liver microsomes
# Type: ADME, Microsome
# Experimental Parameters: read-out: CLH
Label rule met when microsomal CLint is strictly below 60 µL/min/mg; otherwise label rule not met.

A selection of reference data follows.
| Cpd Smiles | Label |
| --- | --- |
| CC(C)Oc1cc(-c2cncc(-c3cnn(C4COC4)c3)c2)ccc1C(N)=O | rule met |
| CC(C)Oc1cc(-c2cccnc2)ccc1C(N)=O | rule met |
| Cc1n[nH]c(C)c1-c1cncc(-c2ccc(C(N)=O)c(OC(C)C)c2)c1 | rule not met |
| Cc1c(-c2cncc(-c3ccc(C(N)=O)c(OC(C)C)c3)c2)cnn1C | rule met |

Request: Consider the molecule "Cc1[nH]ncc1-c1cncc(-c2ccc(C(N)=O)c(OC(C)C)c2)c1" . Is its microsomal CLint strictly less than 60 µL/min/mg?
Response: rule not met

====

# Experiment Summary: Initial plasma concentration in mouse at 1 mg/kg, iv
# Type: ADME, organism-based
Parameter: C0 (ng/mL)
State the answer as a number, implicitly in ng/mL.

The recorded C0 for entry "CC(C)Oc1cc(-c2cccnc2)ccc1C(N)=O" equals 678

====

// reported clearance for each item listed
# Experiment Summary: Clearance in mouse at 1 mg/kg, iv
# Format: ADME, organism-based
# Experimental Parameters: in vivo
State the answer as a number, implicitly in mL/min/kg.

| Cpd Smiles | Output Unit | clearance |
| --- | --- | --- |
| CC(C)Oc1cc(-c2cccnc2)ccc1C(N)=O | mL/min/kg | 100 |

The recorded clearance for entry "CC(C)Oc1cc(-c2cncc(-c3cnn(C4COC4)c3)c2)ccc1C(N)=O" equals 28.3

====

// reported Vd for each item listed
# Experiment Summary: Apparent volume of distribution in mouse at 1 mg/kg, iv
# Assay type: ADME, organism-based
# Experimental Parameters: in vivo, read-out: Vz
State the answer as a number, implicitly in L/kg.

| Cpd Smiles | Output Unit | Reading |
| --- | --- | --- |
| CC(C)Oc1cc(-c2cncc(-c3cnn(C4COC4)c3)c2)ccc1C(N)=O | L/kg | 5.5 |

// below: Vd requested for another molecule
The recorded Vd for entry "CC(C)Oc1cc(-c2cccnc2)ccc1C(N)=O" equals 30

====

# Experiment Summary: Oral bioavailability in mouse at 5 mg/kg
# Type: ADME, organism-based
# Experimental Parameters: in vivo
Parameter: bioavailability (%)
State the answer as a number, implicitly in %.

The recorded bioavailability for entry "CC(C)Oc1cc(-c2cncc(-c3cnn(C4COC4)c3)c2)ccc1C(N)=O" equals 73

The recorded bioavailability for entry "CC(C)Oc1cc(-c2cccnc2)ccc1C(N)=O" equals 61

====

// reported AUC(0-inf) for each item listed
# Experiment Summary: AUC (0 to infinity) in mouse at 5 mg/kg, po
# Type: ADME, organism-based
# Parameters: dose 5 mg/kg, route oral, time infinity
# Experimental Parameters: in vivo
State the answer as a number, implicitly in ng·h/mL.

| Cpd Smiles | AUC(0-inf) [ng·h/mL] |
| --- | --- |
| CC(C)Oc1cc(-c2cncc(-c3cnn(C4COC4)c3)c2)ccc1C(N)=O | 2360 |

// below: AUC(0-inf) requested for another compound
The recorded AUC(0-inf) for entry "CC(C)Oc1cc(-c2cccnc2)ccc1C(N)=O" equals 494

====

# Experiment Summary: Thermodynamic solubility of compound at pH 7.4
# Format: physicochemical
# Experimental Parameters: buffer, read-out: Therm_solubility
Classification field: MET = solubility thermodynamic at or over 10 µg/mL; NOT MET = solubility thermodynamic under 10 µg/mL.

| Cpd Smiles | Label |
| --- | --- |
| CC(C)Oc1cc(-c2cccnc2)ccc1C(N)=O | MET |

Request: Decide: is the reported value of solubility thermodynamic for "CC(C)Oc1cc(-c2cncc(-c3cnn(C4COC4)c3)c2)ccc1C(N)=O" equal to or greater than 10 µg/mL?
Response: MET

Request: Decide: is the reported value of solubility thermodynamic for "Cc1[nH]ncc1-c1cncc(-c2ccc(C(N)=O)c(OC(C)C)c2)c1" equal to or greater than 10 µg/mL?
Response: MET

Request: Decide: is the reported value of solubility thermodynamic for "Cc1c(-c2cncc(-c3ccc(C(N)=O)c(OC(C)C)c3)c2)cnn1C" equal to or greater than 10 µg/mL?
Response: NOT MET

====

// reported CL/F for each item listed
# Experiment Summary: Clearance in mouse at 5 mg/kg, po
# Assay type: ADME, organism-based
# Experimental Parameters: in vivo
State the answer as a number, implicitly in mL/min/kg.

| Cpd Smiles | Output Unit | Reading |
| --- | --- | --- |
| CC(C)Oc1cc(-c2cccnc2)ccc1C(N)=O | mL/min/kg | 168 |

The recorded CL/F for entry "CC(C)Oc1cc(-c2cncc(-c3cnn(C4COC4)c3)c2)ccc1C(N)=O" equals 35

====

# Experiment Summary: Permeability across apical side to basolateral side of membrane in human Caco2 cells
# Assay type: ADME, cell-based
# Experimental Parameters: Caco-2, read-out: permeability
// reported Papp A→B for each item listed
State the answer as a number, implicitly in nm/s.

| Cpd Smiles | Papp A→B, nm/s |
| --- | --- |
| Cc1n[nH]c(C)c1-c1cncc(-c2ccc(C(N)=O)c(OC(C)C)c2)c1 | 62 |
| Cc1c(-c2cncc(-c3ccc(C(N)=O)c(OC(C)C)c3)c2)cnn1C | 270 |
| CC(C)Oc1cc(-c2cncc(-c3cnn(C4COC4)c3)c2)ccc1C(N)=O | 100 |

The recorded Papp A→B for entry "Cc1[nH]ncc1-c1cncc(-c2ccc(C(N)=O)c(OC(C)C)c2)c1" equals 83

The recorded Papp A→B for entry "CC(C)Oc1cc(-c2cccnc2)ccc1C(N)=O" equals 320

====

# Experiment Summary: Terminal elimination half life in mouse at 1 mg/kg, iv
# Type: ADME, organism-based
# Experimental Parameters: in vivo, read-out: beta t1/2 (converted)
Parameter: half-life (h)
State the answer as a number, implicitly in h.

| Cpd Smiles | half-life [h] |
| --- | --- |
| CC(C)Oc1cc(-c2cncc(-c3cnn(C4COC4)c3)c2)ccc1C(N)=O | 2.2 |

// below: half-life requested for another compound
The recorded half-life for entry "CC(C)Oc1cc(-c2cccnc2)ccc1C(N)=O" equals 3.4

====

# Experiment Summary: Permeability across basolateral side to apical side of membrane in human Caco2 cells
# Type: ADME, cell-based
# Experimental Parameters: Caco-2, read-out: permeability
Label criterion met when Papp B→A is strictly below 30 ×10⁻⁶ cm/s; otherwise label criterion not met.

A selection of reference data follows.
| Cpd Smiles | Label |
| --- | --- |
| CC(C)Oc1cc(-c2cccnc2)ccc1C(N)=O | criterion met |
| Cc1[nH]ncc1-c1cncc(-c2ccc(C(N)=O)c(OC(C)C)c2)c1 | criterion not met |
| Cc1c(-c2cncc(-c3ccc(C(N)=O)c(OC(C)C)c3)c2)cnn1C | criterion met |

Request: Consider the compound "CC(C)Oc1cc(-c2cncc(-c3cnn(C4COC4)c3)c2)ccc1C(N)=O" . Is its Papp B→A strictly less than 30 ×10⁻⁶ cm/s?
Response: criterion met

Request: Consider the compound "Cc1n[nH]c(C)c1-c1cncc(-c2ccc(C(N)=O)c(OC(C)C)c2)c1" . Is its Papp B→A strictly less than 30 ×10⁻⁶ cm/s?
Response: criterion not met

====

// reported half-life for each item listed
# Experiment Summary: Terminal elimination half-life in mouse at 5 mg/kg, po
# Type: ADME, organism-based
# Experimental Parameters: in vivo, read-out: beta t1/2 (converted)
State the answer as a number, implicitly in h.

| Cpd Smiles | half-life / h |
| --- | --- |
| CC(C)Oc1cc(-c2cccnc2)ccc1C(N)=O | 1.6 |

// below: half-life requested for another compound
The recorded half-life for entry "CC(C)Oc1cc(-c2cncc(-c3cnn(C4COC4)c3)c2)ccc1C(N)=O" equals 2.8

====

# Experiment Summary: Clearance in human liver microsomes
# Assay type: ADME, Microsome
# Experimental Parameters: read-out: CLH
// reported microsomal CLint for each item listed
State the answer as a number, implicitly in µL/min/mg.

Below are worked cases with known answers.
| Cpd Smiles | Parameter | Output Unit | Reading |
| --- | --- | --- | --- |
| CC(C)Oc1cc(-c2cccnc2)ccc1C(N)=O | microsomal CLint | µL/min/mg | 5.8 |
| Cc1c(-c2cncc(-c3ccc(C(N)=O)c(OC(C)C)c3)c2)cnn1C | microsomal CLint | µL/min/mg | 7.9 |

The recorded microsomal CLint for entry "Cc1[nH]ncc1-c1cncc(-c2ccc(C(N)=O)c(OC(C)C)c2)c1" equals 18

====

# Experiment Summary: AUC (0 to infinity) in mouse at 1 mg/kg, iv
# Format: ADME, organism-based
# Set-up: dose 1 mg/kg, time infinity, route intravenous
# Experimental Parameters: in vivo
Parameter: AUC(0-inf) (ng·h/mL)
State the answer as a number, implicitly in ng·h/mL.

| Cpd Smiles | AUC(0-inf) [ng·h/mL] |
| --- | --- |
| CC(C)Oc1cc(-c2cccnc2)ccc1C(N)=O | 166 |

// below: AUC(0-inf) requested for another compound
The recorded AUC(0-inf) for entry "CC(C)Oc1cc(-c2cncc(-c3cnn(C4COC4)c3)c2)ccc1C(N)=O" equals 579
